- assayed system: Fyn (UniProt P06241)
- Sequence (P06241 whole entry, looked up): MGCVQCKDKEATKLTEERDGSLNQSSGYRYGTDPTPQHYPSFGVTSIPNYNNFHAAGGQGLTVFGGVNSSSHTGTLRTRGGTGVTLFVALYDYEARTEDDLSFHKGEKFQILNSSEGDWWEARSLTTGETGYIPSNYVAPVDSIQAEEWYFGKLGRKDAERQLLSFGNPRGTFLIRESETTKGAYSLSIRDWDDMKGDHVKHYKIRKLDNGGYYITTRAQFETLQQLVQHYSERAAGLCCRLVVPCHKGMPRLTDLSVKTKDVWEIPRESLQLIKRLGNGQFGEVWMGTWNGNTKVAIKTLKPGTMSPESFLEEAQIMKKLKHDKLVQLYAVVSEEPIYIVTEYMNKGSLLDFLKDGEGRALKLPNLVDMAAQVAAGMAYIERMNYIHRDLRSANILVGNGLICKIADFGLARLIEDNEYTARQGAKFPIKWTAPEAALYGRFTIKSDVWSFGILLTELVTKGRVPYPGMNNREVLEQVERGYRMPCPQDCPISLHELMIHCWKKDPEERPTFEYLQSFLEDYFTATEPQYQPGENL
- protocol: phosphorylation enrichment, bacterial display (enrichment ratio); higher = better substrate or ligand; peptides without Tyr show the background;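 note: 11-residue human phosphosite peptides and single-mutation variants displayed on the E. coli surface, counted by deep sequencing, each peptide's frequency after selection divided by its frequency in the unselected input library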;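 note: frequency after pTyr selection over input frequency; kinase dosed for 20-30% of maximal phosphorylation in three min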
Quick rule: phosphorylation enrichment of at least 0.5 means condition met, below that means condition not met.

Could you please find out whether SNFRAYATEPH [TNNI3_Y29_YF] has phosphorylation enrichment that meets 0.5 or exceeds it?
condition not met

Try this sequence too: VTAALYGCLYE [BTD_Y536_R538C]
condition met

Try this sequence too: PPKFFYTRKLL [CYBB_Y41]
condition met

Try this sequence too: NTYENYWPFYQ [GATM_Y103_K102N]
condition met

Try this sequence too: ADYYDYGHGLS [KHDRBS3_Y304]
condition met

Try this sequence too: SSQHRYSTPHA [RAF1_Y232]
condition not met

Try this sequence too: FQVRRYDCDCD [CRYGS_Y21_G18V]
condition met

Try this sequence too: PDGHEYIFVDP [PDGFRA_Y572_YF]
condition met

Try this sequence too: RRIFSYRGHLW [VHL_Y112_H110Y_YF]
condition met

Try this sequence too: RDMNAYISPSP [MMAA_Y207_R209S]
condition not met

Try this sequence too: QLAPQYTFAQG [FLNA_Y1761_YF]
condition not met

Try this sequence too: SNMPSYSGHFT [GRIN2A_Y1224_T1223S]
condition not met

Try this sequence too: YFVVEYRNQKP [MUC17_Y4332_D4334N]
condition met

Try this sequence too: SHNELYFEAAE [VANGL1_Y344_E347A_YF]
condition met

Try this sequence too: PKGTGCIKTEL [STAT1_Y701_Y701C]
condition not met

Try this sequence too: VYAADYYKLLG [ROR2_Y645]
condition met

Try this sequence too: LSAPCYLNRIS [HEXA_Y421_W420C]
condition not met

Try this sequence too: TIQMMYGCDVG [HLA-A_Y123_I121M]
condition met

Try this sequence too: EKKDVYKAGEQ [CFH_Y1008]
condition not met

Try this sequence too: TSGVVYKARNK [CDK2_Y19_Y15S]
condition not met

Try this sequence too: LSVEIHDRREF [ITGB7_Y753_Y753H_YF]
condition met

Try this sequence too: ISSLDYISKSK [VAV3_Y294_T298S]
condition not met

Try this sequence too: DWRQEYVLNES [TGM1_Y267]
condition met

Try this sequence too: RKTAKYLLKGE [CDH5_Y82_N79T]
condition met

Try this sequence too: SIYKDYYRYNF [PLA2G2D_Y85]
condition met

Try this sequence too: AVLSLCASGRT [ACTA2_Y145_Y145C]
condition not met

Try this sequence too: PPGRSYSPFDF [TNS1_Y793_YF]
condition met

Try this sequence too: VILARYGPAWR [CYP2D6_Y124_F120I]
condition met

Try this sequence too: ISIFHCAKGQP [MPZ_Y82_Y82C]
condition met

Try this sequence too: QRRLIYRCQVG [NR2E3_Y81_R76Q]
condition met

Try this sequence too: LSNFNYEQRGA [API5_Y497_G493S]
condition met

Try this sequence too: GSSKIYFLHPD [TLR5_Y108]
condition met

Try this sequence too: NTGVFYDLFGG [PTPN11_Y63_D61V_YF]
condition met

Try this sequence too: CLRIDYERVSQ [DSP_Y1542_R1537C]
condition met

Try this sequence too: EWLRRHLENGK [HLA-A_Y195_Y195H]
condition not met

Try this sequence too: WQQQSYLDSEI [CTNNB1_Y30_G34E]
condition not met

Try this sequence too: DYSLKYPTDIP [APC_Y1183_A1184P]
condition met

Try this sequence too: DSSIRYLQEIY [FGG_Y135]
condition met

Try this sequence too: FFVVEYRDQKP [MUC17_Y4332_YF]
condition not met

Try this sequence too: SFLFHYADDSF [RAB3C_Y50_R49H]
condition not met

Try this sequence too: ADRSCYDLSCR [GARS1_Y467_H472R]
condition met

Try this sequence too: VVIMLYGVDSR [PKD1_Y3143_G3139V]
condition met

Try this sequence too: LYSINYLHFGE [KDM4C_Y201]
condition met

Try this sequence too: STTSDYQWDVS [MTDH_Y364]
condition met

Try this sequence too: NRDNTYNRVSE [FGA_Y127]
condition not met

Try this sequence too: YPKAHYHWLVL [APTX_Y214_R213H]
condition not met

Try this sequence too: KNDSKYVVKGN [KIT_Y823_N822K]
condition not met

Try this sequence too: PLDEEYFTLQI [TP53_Y327_G325E]
condition met

Try this sequence too: SFLSFYTSHVQ [NEFL_Y443_P440L_YF]
condition not met

Try this sequence too: VGTKRYMAPDV [ACVRL1_Y375_E379D]
condition not met

Try this sequence too: EVVGRYSVHYA [MLH1_Y183_N187Y]
condition not met
